Test system: DLK;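 further: KINOMEscan kinase panel screen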
Construct: gene MAP3K12
CONDITION_LABEL: concentration: 1 μM, replicates: in singlicate; n = 1
%Inh: recorded values

MOLECULE: Cc1cc(NCC(c2ccccc2)c2ccccc2)nc(NCc2ccc(C(F)(F)F)cc2)n1 [GW497681]
READOUT_LABEL: %Inh
VALUE: 39%

Endpoint output: %Inh of Cc1ccc(NC(=O)Nc2cc(C(C)(C)C)nn2-c2ccccc2)cc1 [GSK1014915] . Value?
18%

Any idea what its %Inh is? The molecule is Cc1cccc(-c2nc(Nc3cccc(C(N)=O)c3)c3ccccc3n2)n1 [GW876019]
0%

Give its %Inh value. Item: Nc1nc(-c2nccs2)c(-c2ccnc3ccccc23)s1 [GW693542]
33%

Dear colleague, I am looking for the recorded %Inh of the following molecule: Cn1ccc2ncnc(Oc3cccc(C(=O)Nc4ccccc4)c3)c21
0%

Record request: %Inh value, item Cn1ccc2ncnc(Oc3ccc(Nc4nc5ccccc5[nH]4)cc3)c21
0%

What value of measured %Inh is listed for Cc1c(O)cccc1Nc1ccnc2ccc(C(F)(F)F)cc12.Cl [GW466413] ?
43%

I would be grateful if you could share the reported %Inh for CC(C)(C)c1ccc(C(=O)Nc2cn3cc(-c4cccnc4)ccc3n2)cc1 .
0%

Return reported %Inh; argument: Cc1cc(N2Cc3ccccc3C2)nc(Nc2ccc(S(=O)(=O)N3CCOCC3)cc2)n1.Cl [GSK1669917]
2%
